composite z-score values, listed per item
TGT: Streptavidin (Streptomyces avidinii)
PROTOCOL_NOTES: compounds binding control protein streptavidin – biophysical, small-molecule microarray, 635/667 nm fluorescence, artefact control for SMM compound annotation, primary screen (AID 1147);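 also: signal reflects streptavidin binding to arrayed compounds as a control protein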
EXPERIMENTAL_SETUP: higher = more signal
Keep it simple and answer with nothing but the number.

Check out these entries, answers already filled in.
What does the data say about its composite z-score? Entry: `CC(C)[Si]1(C(C)C)OCc2cc(C3CC3)nc(-c3ccc(Oc4ccccc4)cc3)c21`
-0.502

Also check `CN(C)C(=O)[C@]1(CCC(=O)OC(C)(C)C)N=C(c2ccc(OCCCO)cc2)O[C@@H]1c1ccccc1CN=[N+]=[N-]`
0.588

Also check `O=C(c1ccccc1)N1C(=O)[C@]2(Cc3ccccc31)N=C(c1ccc(OCCCO)cc1)O[C@@H]2c1ccccc1`
0.431

Turning now to a further record.
What does the data say about its composite z-score? Entry: `O=C1O[C@H](c2ccccc2)[C@H](c2ccccc2)N2[C@H]1[C@@H](C(=O)O)[C@]1(C(=O)Nc3ccc(C#CCCO)cc31)[C@H]2c1ccccc1OCCO`
-0.18

----------
composite z-score values, listed per item
TGT: Epidermal growth factor receptor (Homo sapiens) (UniProt P00533)
Sequence (P00533 whole entry, looked up): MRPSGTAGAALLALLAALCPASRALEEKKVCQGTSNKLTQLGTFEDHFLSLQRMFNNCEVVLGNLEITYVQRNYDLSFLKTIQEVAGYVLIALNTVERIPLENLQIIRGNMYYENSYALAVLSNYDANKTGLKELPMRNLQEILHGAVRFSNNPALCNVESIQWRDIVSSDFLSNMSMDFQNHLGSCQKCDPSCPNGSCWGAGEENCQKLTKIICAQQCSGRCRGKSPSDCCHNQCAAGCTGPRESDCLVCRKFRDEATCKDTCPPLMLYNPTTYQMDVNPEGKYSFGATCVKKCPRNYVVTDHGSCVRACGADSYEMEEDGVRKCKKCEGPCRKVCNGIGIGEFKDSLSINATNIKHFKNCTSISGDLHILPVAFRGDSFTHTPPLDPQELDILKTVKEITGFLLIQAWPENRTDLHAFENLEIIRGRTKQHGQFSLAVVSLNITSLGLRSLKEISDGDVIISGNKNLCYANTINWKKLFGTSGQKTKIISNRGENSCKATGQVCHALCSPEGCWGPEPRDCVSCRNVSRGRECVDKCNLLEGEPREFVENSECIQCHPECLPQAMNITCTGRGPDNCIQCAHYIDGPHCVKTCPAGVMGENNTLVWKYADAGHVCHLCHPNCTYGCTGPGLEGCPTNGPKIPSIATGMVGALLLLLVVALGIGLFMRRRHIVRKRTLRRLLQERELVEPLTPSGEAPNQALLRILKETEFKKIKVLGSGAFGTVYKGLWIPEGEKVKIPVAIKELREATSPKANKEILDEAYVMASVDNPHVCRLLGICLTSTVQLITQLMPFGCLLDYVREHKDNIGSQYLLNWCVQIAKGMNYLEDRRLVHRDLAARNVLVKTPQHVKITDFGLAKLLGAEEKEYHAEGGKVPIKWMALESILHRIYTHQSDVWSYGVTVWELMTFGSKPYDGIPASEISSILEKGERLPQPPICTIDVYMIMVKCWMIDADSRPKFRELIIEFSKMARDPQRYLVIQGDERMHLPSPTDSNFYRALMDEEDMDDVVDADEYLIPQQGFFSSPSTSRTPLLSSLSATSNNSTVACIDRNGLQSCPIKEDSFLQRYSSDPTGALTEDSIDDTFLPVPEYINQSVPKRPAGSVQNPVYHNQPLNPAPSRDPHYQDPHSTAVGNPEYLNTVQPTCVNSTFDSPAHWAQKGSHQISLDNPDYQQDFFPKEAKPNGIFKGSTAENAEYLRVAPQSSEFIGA
PROTOCOL_NOTES: compounds binding epidermal growth factor receptor – biochemical, small-molecule microarray, 635 nm fluorescence, primary screen (AID 1104);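 also: score merges 667 nm emission intensity with spot signal to noise over triplicate slides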
EXPERIMENTAL_SETUP: EGFR binding, higher = more signal

Check out these entries, answers already filled in.
What does the data say about its composite z-score? Entry: CC1CC/C=C\[C@H]2OC34C=CCN(c5ccc(Cl)cc5)C(=O)[C@H]3N(C(C)CO)C(=O)[C@]4(C)C2C(=O)O1 (stereo partly drawn)
-0.955

Also check `COC(=O)[C@@]1(Cc2ccc(F)cc2)[C@H]2c3cc(C(=O)N(C)C)n(Cc4ccc(OC(F)(F)F)cc4)c3C[C@H]2CN1C(=O)c1ccccc1`
0.18

Also check `COC(=O)[C@@]1(Cc2ccc(OC)cc2)[C@H]2c3cc(C(=O)N4CCCC4)n(CCc4c[nH]c5ccc(OC)cc45)c3C[C@H]2CN1C(=O)c1ccccc1`
-0.0086

Also check `Cc1ccc(N2C(=O)c3ccccc3[C@@H](C(=O)NCCCN(C)C)[C@@H]2c2ccc(CO)cc2)nc1`
0.239

Also check COc1cc2c(cc1O)C(c1cccs1)N(Cc1cc3c(cc1Br)OCO3)CC2 (stereo not drawn)
0.345

Also check Cn1cccc1C(O)C1C=CC2C(=O)N(c3ccccc3)C(=O)C2N1Nc1ccccc1 (stereo not drawn)
0.671

Also check `CCCC=C(CCC)[C@@H](NS(=O)(=O)c1ccc(C(F)(F)F)cc1)c1ccccc1`
-0.585

---
What does the data say about its composite z-score? Entry: `Cc1ccc(F)cc1S(=O)(=O)N[C@@H]1CCN(Cc2ccc(Br)cc2)C1`
0.529

----------
PROTOCOL_NOTES: budding yeast growth changes without added modifier – OD600, strain BY4716, 24 h, basal condition, primary screen (AID 1173)
EXPERIMENTAL_SETUP: S. cerevisiae BY4716 growth, OD600, 24 h; higher = more signal, called active from +8 up or from −8 down
READOUT_NAME: z-score
Keep it simple and answer with nothing but the number.

What does the data say about its z-score? Entry: `COC(=O)[C@@]1(Cc2ccc(F)cc2)[C@H]2c3cc(C(=O)N4CCCC4)n(Cc4ccc(C)c(F)c4F)c3C[C@H]2CN1C(=O)c1ccccc1`
0.289

Also check `CC(=O)NCCCC[C@@H]1NC(=O)[C@@H]2C[C@H](C(=O)NCCCCCN)[C@H](c3ccc(O)cc3)N2C1=O`
-0.12

Turning now to a further record.
What does the data say about its z-score? Entry: C=CCC(OC(C)=O)[C@@H]1[C@@H](N(Cc2cccc3ccccc23)C(=O)Cc2ccc(OC)cc2)c2cc(OCCCO)ccc2N1C(=O)c1ccc(-c2ccccc2)cc1 (stereo partly drawn)
0.376
